Reference source: ChEMBL document CHEMBL5291721

# assayed.target: D(1A) dopamine receptor (Homo sapiens); note: assay procedure not described here
# Sequence (P21728 whole entry): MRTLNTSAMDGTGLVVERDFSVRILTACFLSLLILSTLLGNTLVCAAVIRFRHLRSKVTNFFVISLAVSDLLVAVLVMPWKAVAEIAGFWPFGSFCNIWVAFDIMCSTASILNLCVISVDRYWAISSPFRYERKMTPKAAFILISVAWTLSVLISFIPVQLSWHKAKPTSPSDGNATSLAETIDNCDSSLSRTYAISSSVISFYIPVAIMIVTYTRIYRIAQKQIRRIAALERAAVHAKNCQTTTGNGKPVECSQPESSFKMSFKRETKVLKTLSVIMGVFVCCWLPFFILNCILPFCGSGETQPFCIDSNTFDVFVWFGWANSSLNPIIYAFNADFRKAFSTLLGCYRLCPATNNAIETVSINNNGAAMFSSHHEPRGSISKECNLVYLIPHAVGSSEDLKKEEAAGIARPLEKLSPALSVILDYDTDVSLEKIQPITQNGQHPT
# Format: functional, cell-based
readout.kind: AC50

compound	result
Cc1oc(=O)oc1CN1CCN(c2cc3c(cc2F)c(=O)c(C(=O)O)c2n3C(C)S2)CC1 (stereo unspecified)	> 30 µM
CC(C)=CCC/C(C)=C/C=C/C(C)=C/C=C/C(C)=C/C=C/C=C(C)/C=C/C=C(C)/C=C/C=C(\C)CCC=C(C)C	> 30 µM
CCCC1O[C@@H]2C[C@H]3[C@@H]4CCC5=CC(=O)C=C[C@]5(C)[C@H]4[C@@H](O)C[C@]3(C)[C@]2(C(=O)CO)O1 (stereo partly specified) [BUDESONIDE]	> 10 µM
CN1CCN(C2=Nc3ccccc3Sc3ccc(Cl)cc32)CC1	> 30 µM

Return reported AC50 values for all items listed beneath this line.
1. C[C@](N)(Cc1ccc(O)c(O)c1)C(=O)O
2. CS(=O)(=O)c1ccc(C2=C(c3ccccc3)C(=O)OC2)cc1
3. C#C[C@]1(O)CC[C@H]2[C@@H]3[C@H](C)CC4=C(CCC(=O)C4)[C@H]3CC[C@@]21C

-- reply
1. > 30 µM
2. > 10 µM
3. > 30 µM

Return reported AC50 values for all items listed beneath this line.
1. Cc1c(C(=O)NN2CCCCC2)nn(-c2ccc(Cl)cc2Cl)c1-c1ccc(Cl)cc1
2. CC[C@H]1OC(=O)[C@H](C)[C@@H](O[C@H]2C[C@@](C)(OC)[C@@H](O)[C@H](C)O2)[C@H](C)[C@@H](O[C@@H]2O[C@H](C)C[C@H](N(C)C)[C@H]2O)[C@](C)(O)C[C@@H](C)CN(C)[C@H](C)[C@@H](O)[C@]1(C)O
3. C=CCN1CCCC1CNC(=O)c1cc(S(N)(=O)=O)cc(OC)c1OC (stereo unspecified) [VERALIPRIDE]
4. COc1ccc2c3c1O[C@H]1[C@@H](O)C=C[C@H]4[C@@H](C2)N(C)CC[C@@]341
5. CCCC(C)C1(CC)C(=O)NC(=O)NC1=O (stereo unspecified)
6. CCCCN1C[C@H](O)[C@@H](O)[C@H](O)[C@H]1CO
7. Cc1cccc(Nc2ccccc2C(=O)O)c1C
8. Fc1ccc(C(c2ccccc2)(c2ccccc2F)n2ccnc2)cc1 (stereo unspecified)

-- reply
> 30 µM
> 10 µM
> 30 µM
> 10 µM
> 30 µM
> 30 µM
> 10 µM
> 30 µM

-- ask Entry CCCN(CCC)C(=O)C(CCC(=O)O)NC(=O)c1ccccc1 (stereo unspecified) [PROGLUMIDE] has what AC50?
-- reply > 30 µM

====

Give measured AC50 for each item. Keep answers brief.
# assayed.target: Vascular endothelial growth factor receptor 2 (Homo sapiens); note: assay procedure not described here
# Sequence (P35968 whole entry): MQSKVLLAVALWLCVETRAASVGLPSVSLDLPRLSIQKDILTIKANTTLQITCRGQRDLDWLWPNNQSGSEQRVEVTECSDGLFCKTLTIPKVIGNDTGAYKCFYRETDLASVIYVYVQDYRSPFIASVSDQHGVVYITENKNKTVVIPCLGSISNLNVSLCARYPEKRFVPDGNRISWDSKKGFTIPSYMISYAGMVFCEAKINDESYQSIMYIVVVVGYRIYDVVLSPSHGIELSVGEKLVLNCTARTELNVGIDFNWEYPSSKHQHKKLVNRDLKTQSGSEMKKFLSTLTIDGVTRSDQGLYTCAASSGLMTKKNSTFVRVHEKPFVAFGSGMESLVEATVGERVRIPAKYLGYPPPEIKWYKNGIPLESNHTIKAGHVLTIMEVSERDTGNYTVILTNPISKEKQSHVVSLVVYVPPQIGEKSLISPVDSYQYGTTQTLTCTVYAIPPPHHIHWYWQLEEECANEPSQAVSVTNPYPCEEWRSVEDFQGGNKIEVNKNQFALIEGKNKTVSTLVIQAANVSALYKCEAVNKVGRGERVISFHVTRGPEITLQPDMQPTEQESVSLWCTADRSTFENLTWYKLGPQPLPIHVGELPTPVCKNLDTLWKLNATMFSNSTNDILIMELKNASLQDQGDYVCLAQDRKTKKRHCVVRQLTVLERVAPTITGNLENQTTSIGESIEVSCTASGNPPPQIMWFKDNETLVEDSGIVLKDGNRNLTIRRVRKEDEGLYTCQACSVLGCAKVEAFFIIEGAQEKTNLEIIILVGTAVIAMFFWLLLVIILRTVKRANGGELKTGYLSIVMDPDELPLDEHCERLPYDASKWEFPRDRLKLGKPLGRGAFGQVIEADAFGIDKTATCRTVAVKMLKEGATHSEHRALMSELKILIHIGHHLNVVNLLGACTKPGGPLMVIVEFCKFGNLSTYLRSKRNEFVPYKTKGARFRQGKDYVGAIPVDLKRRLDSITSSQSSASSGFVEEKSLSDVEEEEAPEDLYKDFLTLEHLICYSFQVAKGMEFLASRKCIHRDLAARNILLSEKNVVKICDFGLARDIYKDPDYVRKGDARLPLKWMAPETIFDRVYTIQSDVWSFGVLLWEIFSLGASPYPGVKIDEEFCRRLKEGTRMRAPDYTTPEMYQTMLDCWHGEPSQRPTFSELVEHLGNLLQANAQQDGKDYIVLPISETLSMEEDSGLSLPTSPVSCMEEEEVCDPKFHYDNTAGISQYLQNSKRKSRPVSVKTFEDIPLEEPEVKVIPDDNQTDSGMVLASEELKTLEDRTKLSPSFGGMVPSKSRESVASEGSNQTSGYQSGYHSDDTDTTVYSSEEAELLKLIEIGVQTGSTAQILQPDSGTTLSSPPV
# Assay type: functional

> print(dat)
                                   compound   result
1        N=C1CCCN1Cc1[nH]c(=O)[nH]c(=O)c1Cl  > 30 µM
2  C=CCN1C[C@H](C(=O)N(CCCN(C)C)C(=O)NCC)C[C@@H]2c3cccc4[nH]cc(c34)C[C@H]21  > 30 µM
3  CN(C)[C@@H](c1cccc(O)c1)[C@H]1CCCC[C@H]1O  9.31 µM
4      CC(C)(C)N1CCC(c2ccccc2)(c2ccccc2)CC1  > 30 µM
5  Cc1cc(OP(=O)(O)O)c2ccccc2c1OP(=O)(O)O [MENADIOL SODIUM DIPHOSPHATE]  > 30 µM

-- ask What measured AC50 is associated with O=C(O)c1cc(O)ccc1O on Vascular endothelial growth factor receptor 2 (Homo sapiens)?
-- reply > 30 µM

====

A short record of AC50 observed with Muscarinic acetylcholine receptor M2 (Homo sapiens) follows.
Sequence (P08172 whole entry): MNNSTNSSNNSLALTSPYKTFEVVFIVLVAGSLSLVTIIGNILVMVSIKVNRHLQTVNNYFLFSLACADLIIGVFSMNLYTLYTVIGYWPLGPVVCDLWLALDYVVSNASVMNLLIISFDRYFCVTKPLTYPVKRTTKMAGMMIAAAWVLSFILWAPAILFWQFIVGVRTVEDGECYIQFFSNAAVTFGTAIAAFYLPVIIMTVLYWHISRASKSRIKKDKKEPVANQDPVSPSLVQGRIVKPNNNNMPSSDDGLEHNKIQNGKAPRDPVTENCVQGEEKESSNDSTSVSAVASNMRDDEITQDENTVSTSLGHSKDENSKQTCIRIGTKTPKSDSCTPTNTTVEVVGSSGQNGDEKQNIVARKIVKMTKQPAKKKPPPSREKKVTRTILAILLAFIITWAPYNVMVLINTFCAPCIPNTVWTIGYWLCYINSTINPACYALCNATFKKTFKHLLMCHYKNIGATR

molecule	AC50
CCC(C)n1ncn(-c2ccc(N3CCN(c4ccc(OCC5COC(Cn6cncn6)(c6ccc(Cl)cc6Cl)O5)cc4)CC3)cc2)c1=O (configuration not stated) [ITRACONAZOLE]	> 10 µM
COc1ccc2c3c1O[C@H]1[C@@H](O)C=C[C@H]4[C@@H](C2)N(C)CC[C@@]341 [CODEINE]	> 10 µM
O=C(O[C@H]1C[C@H]2CC[C@@H](C1)[N+]21CCCC1)C(O)(c1ccccc1)c1ccccc1 [TROSPIUM]	0.026 µM
O=[N+]([O-])O[C@@H]1CO[C@H]2[C@@H]1OC[C@@H]2O [ISOSORBIDE MONONITRATE]	> 10 µM
CC[C@H]1OC(=O)[C@H](C)[C@@H](O[C@H]2C[C@@](C)(OC)[C@@H](O)[C@H](C)O2)[C@H](C)[C@@H](O[C@@H]2O[C@H](C)C[C@H](N(C)C)[C@H]2O)[C@](C)(O)C[C@@H](C)CN(C)[C@H](C)[C@@H](O)[C@]1(C)O [AZITHROMYCIN]	> 10 µM

Return reported AC50 values for all items listed beneath this line.
1. Cc1cn([C@H]2C=C[C@@H](CO)O2)c(=O)[nH]c1=O [STAVUDINE]
2. CN(C)CCC(c1ccc(Cl)cc1)c1ccccn1 (configuration not stated) [CHLORPHENIRAMINE]

-- reply
["> 10 µM", "5.52 µM"]

====

A short record of AC50 observed with Neuronal acetylcholine receptor subunit alpha-4 (Homo sapiens, UniProt P43681) follows.
Sequence (P43681 whole entry): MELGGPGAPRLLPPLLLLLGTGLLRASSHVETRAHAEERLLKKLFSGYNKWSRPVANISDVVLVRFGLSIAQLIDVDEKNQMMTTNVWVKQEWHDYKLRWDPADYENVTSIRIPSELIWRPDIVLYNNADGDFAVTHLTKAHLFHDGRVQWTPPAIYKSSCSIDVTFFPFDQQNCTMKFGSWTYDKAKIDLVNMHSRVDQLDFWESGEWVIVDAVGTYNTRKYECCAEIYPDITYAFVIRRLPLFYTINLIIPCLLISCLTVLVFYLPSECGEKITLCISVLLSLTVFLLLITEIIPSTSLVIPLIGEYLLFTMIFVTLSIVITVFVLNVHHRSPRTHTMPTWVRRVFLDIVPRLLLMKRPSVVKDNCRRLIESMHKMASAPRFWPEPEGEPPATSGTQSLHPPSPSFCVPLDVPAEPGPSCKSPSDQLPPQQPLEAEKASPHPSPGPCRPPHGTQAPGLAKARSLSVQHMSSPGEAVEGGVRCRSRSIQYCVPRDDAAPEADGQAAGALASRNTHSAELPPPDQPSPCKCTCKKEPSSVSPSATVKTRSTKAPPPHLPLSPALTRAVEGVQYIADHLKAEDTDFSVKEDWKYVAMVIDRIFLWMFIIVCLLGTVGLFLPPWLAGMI

// below: answered molecules
> print(dat)
                                   molecule  readout.kind   result
1   Cc1nnc2n1-c1ccc(Cl)cc1C(c1ccccc1Cl)=NC2          AC50  > 10 µM
2  CCOc1ccc(Cc2cc([C@@H]3O[C@H](CO)[C@@H](O)[C@H](O)[C@H]3O)ccc2Cl)cc1          AC50  > 10 µM
3                   CC=CC(=O)N(CC)c1ccccc1C          AC50  > 10 µM
4  O=C(NCCN1CCOCC1)c1ccc(Cl)cc1 [MOCLOBEMIDE]          AC50  > 10 µM

Return reported AC50 values for all items listed beneath this line.
1. NC(=O)CN1CC(O)CC1=O (centres undefined)
2. C[C@H](N)[C@H](O)c1cccc(O)c1
3. CN(C)/N=N/c1[nH]cnc1C(N)=O
4. CCN1CCN(C(=O)N[C@@H](C(=O)N[C@@H]2C(=O)N3C(C(=O)O)=C(CSc4nnnn4C)CS[C@H]23)c2ccc(O)cc2)C(=O)C1=O
5. CCOC(=O)[C@H](CCc1ccccc1)N[C@@H](C)C(=O)N1C(=O)N(C)C[C@H]1C(=O)O

-- reply
> 30 µM
> 10 µM
> 10 µM
> 30 µM
> 30 µM

====

Give measured AC50 for each item. Keep answers brief.
# assayed.target: UniProt P21397
# Sequence (P21397 whole entry): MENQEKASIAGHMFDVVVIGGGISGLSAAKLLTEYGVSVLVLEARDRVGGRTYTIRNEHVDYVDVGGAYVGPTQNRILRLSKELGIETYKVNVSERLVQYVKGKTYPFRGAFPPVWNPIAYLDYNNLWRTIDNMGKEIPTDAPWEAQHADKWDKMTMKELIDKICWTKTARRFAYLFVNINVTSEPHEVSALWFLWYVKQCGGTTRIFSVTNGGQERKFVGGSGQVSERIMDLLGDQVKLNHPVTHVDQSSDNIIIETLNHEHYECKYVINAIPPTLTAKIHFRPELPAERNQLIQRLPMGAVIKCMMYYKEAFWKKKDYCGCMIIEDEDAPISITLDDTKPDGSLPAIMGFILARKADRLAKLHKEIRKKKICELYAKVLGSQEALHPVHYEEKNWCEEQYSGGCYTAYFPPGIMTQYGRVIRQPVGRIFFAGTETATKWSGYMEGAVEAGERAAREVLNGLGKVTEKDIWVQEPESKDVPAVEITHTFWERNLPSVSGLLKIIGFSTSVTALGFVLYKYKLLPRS
# Type: functional

// below: answered molecules
molecule	assayed.target	readout.kind	result
CC(=O)O[C@H]1CC[C@@]2(C)C(=CC[C@@H]3[C@@H]2CC[C@]2(C)C(c4cccnc4)=CC[C@@H]32)C1 [ABIRATERONE ACETATE]	UniProt P21397	AC50	> 30 µM
COc1cc2nc(N(C)CCCNC(=O)C3CCCO3)nc(N)c2cc1OC (stereo unspecified) [ALFUZOSIN]	UniProt P21397	AC50	> 30 µM
C=CCC1(CC(C)C)C(=O)NC(=O)NC1=O [BUTALBITAL]	UniProt P21397	AC50	> 30 µM
CN1C(=O)OC(C)(C)C1=O [TRIMETHADIONE]	UniProt P21397	AC50	> 10 µM
C1CCC(C(CC2CCCCN2)C2CCCCC2)CC1 (stereo unspecified) [PERHEXILINE]	UniProt P21397	AC50	> 30 µM
COC(=O)[C@H]1[C@H]2C[C@@H]3c4[nH]c5cc(OC)ccc5c4CCN3C[C@H]2C[C@@H](OC(=O)/C=C/c2cc(OC)c(OC)c(OC)c2)[C@@H]1OC [RESCINNAMINE]	UniProt P21397	AC50	> 10 µM
Cc1cccc(C(C)c2cnc[nH]2)c1C (stereo unspecified) [MEDETOMIDINE]	UniProt P21397	AC50	> 30 µM
CC[C@H]1CN2CCc3cc(OC)c(OC)cc3[C@@H]2C[C@@H]1C[C@H]1NCCc2cc(OC)c(OC)cc21 [EMETINE]	UniProt P21397	AC50	> 30 µM
CCN1CCN(C(=O)N[C@@H](C(=O)N[C@@H]2C(=O)N3C(C(=O)O)=C(CSc4nnnn4C)CS[C@H]23)c2ccc(O)cc2)C(=O)C1=O [CEFOPERAZONE]	UniProt P21397	AC50	> 30 µM
O=C1C(O)=C([C@H]2CC[C@H](c3ccc(Cl)cc3)CC2)C(=O)c2ccccc21 [ATOVAQUONE]	UniProt P21397	AC50	> 30 µM

Return reported AC50 values for all items listed beneath this line.
1. CCCC1O[C@@H]2C[C@H]3[C@@H]4CCC5=CC(=O)C=C[C@]5(C)[C@H]4[C@@H](O)C[C@]3(C)[C@]2(C(=O)CO)O1 (stereo partly specified) [BUDESONIDE]
2. CCC1(CC)C(=O)NCC(C)C1=O (stereo unspecified) [METHYPRYLON]
3. O=[N+]([O-])O[C@@H]1CO[C@H]2[C@@H]1OC[C@@H]2O [ISOSORBIDE MONONITRATE]
4. C[C@]12CC[C@H]3[C@@H](CCC4=CC(=O)CC[C@@]43C)[C@@H]1CC[C@@H]2O [TESTOSTERONE]
5. C[C@H]1COc2c(C3(N)CC3)c(F)cc3c(=O)c(C(=O)O)cn1c23 [PAZUFLOXACIN]
6. Cc1cc(C(C)(C)C)c(O)c(C)c1CC1=NCCN1 [OXYMETAZOLINE]

-- reply
1: > 10 µM; 2: > 30 µM; 3: > 10 µM; 4: > 10 µM; 5: > 10 µM; 6: > 30 µM
